- Subject Of Test: mAChR M4 (UniProt P08173)
- Construct: hM1 and hM4 cDNAs were purchased from Missouri S&T cDNA Resource
- Measurement Notes: mAChR M4 cell-based functional assay (calcium mobilization, Fluo-4, FDSS)
- Condition Summary: positive allosteric modulator activity: concentration-dependent increase in the EC20 acetylcholine response, CHO-K1 cells; >10 μM estimated for low potency (no plateau)
Metric Name: EC50 (nM)

Cc1cc(C)c2c(n1)sc1c(NC(C)C)nn(CCO)c12    2100
Cc1cc(C)c2c(n1)sc1c(NC(C)C)n[nH]c12    2410

* * *

- Subject Of Test: mAChR M4 (UniProt P08173)
- Construct: hM1 and hM4 cDNAs were purchased from Missouri S&T cDNA Resource
- Measurement Notes: mAChR M4 cell-based functional assay (calcium mobilization, Fluo-4, FDSS)
- Condition Summary: positive allosteric modulator activity: concentration-dependent increase in the EC20 acetylcholine response, CHO-K1 cells; >10 μM estimated for low potency (no plateau)
Metric Name: EC50 (nM)

COCCn1nc(NCc2ccc(S(C)(=O)=O)cc2)c2sc3nc(C)cc(C)c3c21    1200

P = Cc1cc(C)c2c(n1)sc1c(NCC3CC3)nn(C)c12
Q = Cc1cc(C)c2c(n1)sc1c(NCc3cccs3)n[nH]c12
Out of P and Q , name the one with the higher EC50. I would appreciate it if you answered with the label of your choice.
Q

P = Cc1cc(C)c2c(n1)sc1c(NCc3ccc(C#N)c(F)c3)nn(C)c12
Q = Cc1cc(C)c2c(n1)sc1c(NCc3ccc(F)cc3)n[nH]c12
Dear colleague, could you let me know whether P or Q has the lower recorded EC50? Thanks. Record your answer as the label of the chosen record.
P

* * *

- Subject Of Test: mAChR M4 (UniProt P08173)
- Construct: hM1 and hM4 cDNAs were purchased from Missouri S&T cDNA Resource
- Sequence (P08173 1-479): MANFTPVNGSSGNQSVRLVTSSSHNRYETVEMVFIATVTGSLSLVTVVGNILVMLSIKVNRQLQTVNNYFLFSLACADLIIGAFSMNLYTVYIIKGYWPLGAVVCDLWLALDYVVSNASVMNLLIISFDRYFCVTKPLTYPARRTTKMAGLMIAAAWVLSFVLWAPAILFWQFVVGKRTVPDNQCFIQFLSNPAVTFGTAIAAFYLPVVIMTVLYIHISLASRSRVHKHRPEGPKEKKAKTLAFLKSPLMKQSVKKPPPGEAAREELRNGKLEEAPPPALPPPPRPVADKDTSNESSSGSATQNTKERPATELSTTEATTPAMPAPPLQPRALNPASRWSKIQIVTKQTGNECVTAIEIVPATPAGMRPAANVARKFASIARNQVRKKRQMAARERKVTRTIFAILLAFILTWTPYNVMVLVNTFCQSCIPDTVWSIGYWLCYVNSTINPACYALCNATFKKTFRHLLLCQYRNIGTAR
- Measurement Notes: mAChR M4 cell-based functional assay (calcium mobilization, Fluo-4, FDSS)
- Condition Summary: positive allosteric modulator activity, EC20 acetylcholine response, CHO-K1 cells
Metric Name: pEC50

Answered examples (4):
Cc1ccnc2sc3c(NCC4CC4)nn(C)c3c12 [Compound 160]    <5.00
Cc1ccnc2sc3c(NC(=O)c4ccccc4)nn(C)c3c12    <5.00
Cc1cc(C)c2c(n1)sc1c(NCCC(C)C)nn(C)c12    6.72
CCOC(=O)CNc1n[nH]c2c1sc1nc(C)cc(C)c12    <5.00

From here, focus on the item given below.
Request the reported pEC50 associated with "Cc1cc(C)cc(CNc2nn(C)c3c2sc2nc(C)cc(C)c23)c1"
<5.00

* * *

- Subject Of Test: mAChR M4 (UniProt P08173)
- Construct: hM1 and hM4 cDNAs were purchased from Missouri S&T cDNA Resource
- Sequence (P08173 1-479): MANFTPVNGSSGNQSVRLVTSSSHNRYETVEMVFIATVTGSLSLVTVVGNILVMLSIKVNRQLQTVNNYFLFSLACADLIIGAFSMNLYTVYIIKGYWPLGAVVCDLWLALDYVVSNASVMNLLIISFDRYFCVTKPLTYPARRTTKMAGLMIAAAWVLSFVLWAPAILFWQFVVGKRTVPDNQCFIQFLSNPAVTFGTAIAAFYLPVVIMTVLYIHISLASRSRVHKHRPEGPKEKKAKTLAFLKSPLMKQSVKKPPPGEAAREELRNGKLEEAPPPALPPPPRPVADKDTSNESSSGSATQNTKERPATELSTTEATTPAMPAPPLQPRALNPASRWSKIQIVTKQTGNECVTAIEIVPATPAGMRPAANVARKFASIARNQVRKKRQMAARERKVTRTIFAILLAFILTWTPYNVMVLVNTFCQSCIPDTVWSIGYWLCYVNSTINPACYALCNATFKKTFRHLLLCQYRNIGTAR
- Measurement Notes: mAChR M4 cell-based functional assay (calcium mobilization, Fluo-4, FDSS)
- Condition Summary: positive allosteric modulator activity, EC20 acetylcholine response, CHO-K1 cells
- Method: Chinese hamster ovary (CHO-K1) cells stably expressing rat (r)M1 were purchased from the American Type Culture Collection and cultured according to their indicated protocol. […] Calcium flux was measured using the Functional Drug Screening System (FDSS) 6000 (Hamamatsu Corporation, Tokyo, Japan) as an increase in the fluorescent static ratio. […] Agonist activity was analyzed as a concentration-dependent increase in calcium mobilization upon compound addition. […]
Metric Name: pEC50

COCCn1nc(NCc2ccc(S(C)(=O)=O)cc2)c2sc3nc(C)cc(C)c3c21 [Compound 119]    5.92
Cc1cc(C)c2c(n1)sc1c(NCc3ccc(C#N)c(F)c3)nn(C)c12 [Compound 90]    6.60
Cc1cc(C)c2c(n1)sc1c(NC3CNC3)nn(C)c12 [Compound 102]    5.96
Cc1cc(C)c2c(n1)sc1c(NCc3nccs3)nn(C)c12 [Compound 100]    6.37

* * *

- Subject Of Test: mAChR M4 (UniProt P08173)
- Construct: hM1 and hM4 cDNAs were purchased from Missouri S&T cDNA Resource
- Measurement Notes: mAChR M4 cell-based functional assay (calcium mobilization, Fluo-4, FDSS)
- Condition Summary: % ACh maximum at 30 μM
Metric Name: Emax (%)*

Cc1cc(C)c2c(n1)sc1c(NCc3cc(C#N)ccc3F)nn(C)c12    57
Cc1cc(C)c2c(n1)sc1c(NCc3ccsc3)nn(C)c12    71
Cc1cc(C)c2c(n1)sc1c(N)nn(CCO)c12    37
Cc1cc(C)c2c(n1)sc1c(NCc3cccs3)nn(CCO)c12    73
CCNc1n[nH]c2c1sc1nc(C)cc(C)c12    65
Cc1nc2sc3c(NCc4ccco4)n[nH]c3c2c(C)c1Cl    48
Cc1cc(C)c2c(n1)sc1c(NCc3ccccc3F)n[nH]c12    43
Cc1cc(C)c2c(n1)sc1c(NCc3ccc4[nH]ccc4c3)nn(C)c12    67

1 = Cc1nc2sc3c(NCC4CC4)nn(C)c3c2c(C)c1Cl
2 = Cc1cc(C)c2c(n1)sc1c(NC3CCOCC3)n[nH]c12
Pick one: 1 or 2 . Which has the bigger Emax (%)* number? Choose, then provide that item's label.
1
(1: 65%, 2: 37%)

* * *

- Subject Of Test: mAChR M4 (UniProt P08173)
- Construct: hM1 and hM4 cDNAs were purchased from Missouri S&T cDNA Resource
- Sequence (P08173 1-479): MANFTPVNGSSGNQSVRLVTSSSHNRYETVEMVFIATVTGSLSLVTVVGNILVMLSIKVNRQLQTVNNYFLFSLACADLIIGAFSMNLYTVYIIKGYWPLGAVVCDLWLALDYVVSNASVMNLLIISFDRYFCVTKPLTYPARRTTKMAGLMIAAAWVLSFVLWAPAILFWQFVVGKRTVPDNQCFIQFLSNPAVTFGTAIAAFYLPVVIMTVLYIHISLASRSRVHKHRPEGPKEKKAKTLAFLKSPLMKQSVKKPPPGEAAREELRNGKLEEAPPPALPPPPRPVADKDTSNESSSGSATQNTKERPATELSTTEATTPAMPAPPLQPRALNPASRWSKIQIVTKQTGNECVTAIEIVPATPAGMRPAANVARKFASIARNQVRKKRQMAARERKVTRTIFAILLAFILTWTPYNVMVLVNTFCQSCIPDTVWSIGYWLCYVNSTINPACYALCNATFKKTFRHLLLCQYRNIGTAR
- Measurement Notes: mAChR M4 cell-based functional assay (calcium mobilization, Fluo-4, FDSS)
- Condition Summary: positive allosteric modulator activity, EC20 acetylcholine response, CHO-K1 cells
Metric Name: pEC50

Cc1cc(C)c2c(n1)sc1c(NCc3ccc(S(C)(=O)=O)cc3)nn(CCO)c12    7.24
Cc1cc(C)c2c(n1)sc1c(NCc3ccc(F)cc3)nn(C)c12    6.30
Cc1cc(C)c2c(n1)sc1c(NC(C)C)nn(CCO)c12    5.68
Cc1cc(C)c2c(n1)sc1c(NCc3ccc(C)o3)nn(C)c12    7.05
CCNc1n[nH]c2c1sc1nc(C)cc(C)c12    5.68
